Origin of values: patent US11667638B2

# systemName: α4β2 nAChR (Homo sapiens (Human), UniProt P17787+P43681)
# Sequence (P43681 29-627 limits assumed): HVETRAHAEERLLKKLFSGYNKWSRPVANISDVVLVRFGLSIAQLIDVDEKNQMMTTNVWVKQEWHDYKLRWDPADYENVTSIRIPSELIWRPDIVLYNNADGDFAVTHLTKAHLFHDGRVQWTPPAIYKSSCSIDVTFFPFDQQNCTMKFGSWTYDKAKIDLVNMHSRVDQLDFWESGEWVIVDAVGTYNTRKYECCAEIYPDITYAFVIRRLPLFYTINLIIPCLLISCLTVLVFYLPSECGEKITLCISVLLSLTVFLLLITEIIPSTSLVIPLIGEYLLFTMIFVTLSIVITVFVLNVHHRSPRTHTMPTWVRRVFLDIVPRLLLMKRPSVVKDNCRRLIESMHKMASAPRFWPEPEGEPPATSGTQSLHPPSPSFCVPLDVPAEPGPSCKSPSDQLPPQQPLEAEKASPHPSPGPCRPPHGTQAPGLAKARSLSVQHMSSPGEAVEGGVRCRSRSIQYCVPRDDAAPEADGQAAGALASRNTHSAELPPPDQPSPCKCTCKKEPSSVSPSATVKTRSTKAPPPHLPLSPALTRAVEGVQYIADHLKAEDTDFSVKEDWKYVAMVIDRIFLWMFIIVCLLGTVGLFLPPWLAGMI
# Sequence (P17787 26-502 limits assumed): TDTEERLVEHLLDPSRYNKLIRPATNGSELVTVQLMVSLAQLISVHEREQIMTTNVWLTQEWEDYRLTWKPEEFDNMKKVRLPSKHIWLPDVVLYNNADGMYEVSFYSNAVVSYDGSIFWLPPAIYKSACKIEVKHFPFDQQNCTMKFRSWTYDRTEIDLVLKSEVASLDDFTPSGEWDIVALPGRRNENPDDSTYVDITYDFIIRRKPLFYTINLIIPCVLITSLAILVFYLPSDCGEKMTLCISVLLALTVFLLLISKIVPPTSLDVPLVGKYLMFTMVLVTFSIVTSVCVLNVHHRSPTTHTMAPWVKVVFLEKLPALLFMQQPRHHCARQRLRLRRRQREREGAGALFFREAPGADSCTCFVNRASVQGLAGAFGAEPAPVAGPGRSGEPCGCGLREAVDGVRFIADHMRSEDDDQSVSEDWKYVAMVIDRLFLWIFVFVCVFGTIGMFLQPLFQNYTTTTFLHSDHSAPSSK
# Type: binding
# measurementContext: ratio of Ki values
measuredQuantity: Ratio α3β4/α4β2
Numbers only.

compound | recordedValue
Nc1cc2n(c(=O)c1)CC1CNC[C@@H]2C1 (single isomer, unassigned; (+)) [Compound 81, (+)4-aminocytisine] | 1561.0
Cl.O=c1cc(-c2c(F)c(F)c(F)c(F)c2F)cc2n1CC1CNC[C@@H]2C1 (single isomer, unassigned; (-)) [Compound 75, (−)4-(Perfluorophenyl)cytisine] | 8.1
O=C(O)[C@@H]1CCCN1c1cc2n(c(=O)c1)CC1CNC[C@@H]2C1 (single isomer, unassigned; (-)) [Compound 138, (−)4-(N-(L-proline)cytisine] | 2.7
CN(C)Cc1cc2n(c(=O)c1)CC1CNC[C@@H]2C1 [Compound 151, 4-(dimethylamino)methyl-(−)-cytisine] | 105.7
Cl.O=c1c(Br)c(I)cc2n1CC1CNC[C@@H]2C1 (single isomer, unassigned; (+)) [Compound 160, (+)3-Bromo-4-iodocytisine] | 50.0

query: I have this compound here, N#Cc1cc2n(c(=O)c1)CC1CNC[C@@H]2C1 (single isomer, unassigned; (-)) [Compound 140, (−)4-Cyanocytisine] , and I need its recorded Ratio α3β4/α4β2.
result: 199.5
